System: L1210
Test: Antitumor activity against mouse L1210 cells allografted in BDF1 mouse assessed as increase in life span at 200 mg/kg, ip administered 24 hrs post-implantation measured up to 30 days relative to control
Type: functional
Settings: route intraperitoneal
Use 30% as the dividing line for ILS at 200 mg/kg, with the line itself on the Y side and lower values as N.

q: Please indicate if the recorded ILS at 200 mg/kg for `CCCC(=O)OC[C@H]1O[C@@H]2[C@@H](Oc3nc(=N)ccn32)[C@@H]1OC(=O)CCC.Cl` meets or exceeds 30%.
a: Y

q: Please indicate if the recorded ILS at 200 mg/kg for `CCCCCCCCCCCCCCCCCCCCCC(=O)OC[C@H]1O[C@@H]2[C@@H](Oc3nc(=N)ccn32)[C@@H]1OC(=O)CCCCCCCCCCCCCCCCCCCCC.Cl` meets or exceeds 30%.
a: Y

q: Please indicate if the recorded ILS at 200 mg/kg for `CCCCCCCC/C=C\CCCCCCCCCCCC(=O)OC[C@H]1O[C@@H]2[C@@H](Oc3nc(=N)ccn32)[C@@H]1OC(=O)CCCCCCCCCCC/C=C\CCCCCCCC.Cl` meets or exceeds 30%.
a: Y

q: Please indicate if the recorded ILS at 200 mg/kg for `CC(=O)O[C@H]1[C@@H]2Oc3nc(=N)ccn3[C@@H]2O[C@@H]1COC(=O)C12C=CC(C)(CC1)CC2.Cl` meets or exceeds 30%.
a: N

q: Please indicate if the recorded ILS at 200 mg/kg for `CCCCCCCCCCCCCCCCCC(=O)OC[C@H]1O[C@@H]2[C@@H](Oc3nc(=N)ccn32)[C@@H]1OC(=O)CCCCCCCCCCCCCCCCC.Cl` meets or exceeds 30%.
a: Y

q: Please indicate if the recorded ILS at 200 mg/kg for `CCCCCCCCCCCCCC(=O)OC[C@H]1O[C@@H]2[C@@H](Oc3nc(=N)ccn32)[C@@H]1OC(=O)CCCCCCCCCCCCC.Cl` meets or exceeds 30%.
a: Y

q: Please indicate if the recorded ILS at 200 mg/kg for Cl.N=c1ccn2c(n1)O[C@H]1[C@H](O)[C@@H](CO)O[C@H]12 [ANCITABINE HYDROCHLORIDE] meets or exceeds 30%.
a: N

q: Please indicate if the recorded ILS at 200 mg/kg for `CC(=O)O[C@H]1[C@@H]2Oc3nc(=N)ccn3[C@@H]2O[C@@H]1COC(=O)C(C)(C)C.Cl` meets or exceeds 30%.
a: N

q: Please indicate if the recorded ILS at 200 mg/kg for `CCCCCCCC(=O)OC[C@H]1O[C@@H]2[C@@H](Oc3nc(=N)ccn32)[C@@H]1OC(=O)CCCCCCC.Cl` meets or exceeds 30%.
a: N

q: Please indicate if the recorded ILS at 200 mg/kg for `CCCCCCCCCCCCCCCCCCCC(=O)OC[C@H]1O[C@@H]2[C@@H](Oc3nc(=N)ccn32)[C@@H]1OC(=O)CCCCCCCCCCCCCCCCCCC.Cl` meets or exceeds 30%.
a: Y

q: Please indicate if the recorded ILS at 200 mg/kg for `CCCCCCCCCCC(=O)OC[C@H]1O[C@@H]2[C@@H](Oc3nc(=N)ccn32)[C@@H]1OC(=O)CCCCCCCCCC.Cl` meets or exceeds 30%.
a: Y

q: Please indicate if the recorded ILS at 200 mg/kg for `CCCCCCCC/C=C/CCCCCCCC(=O)OC[C@H]1O[C@@H]2[C@@H](Oc3nc(=N)ccn32)[C@@H]1OC(=O)CCCCCCC/C=C/CCCCCCCC.Cl` meets or exceeds 30%.
a: Y

q: Please indicate if the recorded ILS at 200 mg/kg for `CCCCCCCCCCCC(=O)OC[C@H]1O[C@@H]2[C@@H](Oc3nc(=N)ccn32)[C@@H]1OC(=O)CCCCCCCCCCC.Cl` meets or exceeds 30%.
a: Y

q: Please indicate if the recorded ILS at 200 mg/kg for `CCCCCCCCCCCCCCCC(=O)OC[C@H]1O[C@@H]2[C@@H](Oc3nc(=N)ccn32)[C@@H]1OC(=O)CCCCCCCCCCCCCCC.Cl` meets or exceeds 30%.
a: Y

q: Please indicate if the recorded ILS at 200 mg/kg for `CC(=O)OC[C@H]1O[C@@H]2[C@@H](Oc3nc(=N)ccn32)[C@@H]1OC(C)=O.Cl` meets or exceeds 30%.
a: N

q: Please indicate if the recorded ILS at 200 mg/kg for `CCCCCCCC/C=C\CCCCCCCC(=O)OC[C@H]1O[C@@H]2[C@@H](Oc3nc(=N)ccn32)[C@@H]1OC(=O)CCCCCCC/C=C\CCCCCCCC.Cl` meets or exceeds 30%.
a: Y
